test system: TK-10 renal; assay: NCI-60 one-dose screen, 48 h; details: 10 µM unless noted
This is part of a sample that, as a whole, favours compounds with a hit. Of some 83,000 tested, about 20% had one in any assay. The source made the active and inactive calls. How the source made its calls: active means growth percent below 10; inactive means the rest.
Respond using exactly one of the listed classes: active, inactive

INPUT: Which outcome did this test record for the molecule Nc1nc(N)c2c(n1)NC(c1sc(Cl)nc1Cl)CC(c1ccccc1)=N2 (stereo not drawn) ?
OUTPUT: inactive

INPUT: Which outcome did this test record for the molecule Cc1c(-c2ccc(-c3ccccc3F)cc2)nc2ccc(F)cc2c1C(=O)O ?
OUTPUT: inactive

INPUT: Which outcome did this test record for the molecule CCCCCCCCCCCCCCCc1cc(O)ccc1[N+](=O)[O-] ?
OUTPUT: inactive

INPUT: Which outcome did this test record for the molecule COc1ccc(NC(=O)/C=C/c2ccc(NC(=O)N3CCCC3)cc2)cn1 ?
OUTPUT: inactive

INPUT: Which outcome did this test record for the molecule C/C(=C\C(=N\N=C(N)N)c1ccc(Cl)cc1)c1ccc(Cl)cc1 ?
OUTPUT: active

INPUT: Which outcome did this test record for the molecule O=C1/C(=C\c2cccn2Cc2ccc(F)cc2)c2ccccc2N1c1c(Cl)cccc1Cl ?
OUTPUT: inactive

INPUT: Which outcome did this test record for the molecule C=C1NC(=O)C(C(C)CC)NC(=O)C2CSCC(NC(=O)CCC(=O)O)C(=O)NC(Cc3ccccc3)C(=O)NC(C)C(=O)NC(CC(C)CC)C(=O)NC(C(=O)NC(Cc3ccccc3)C(=O)N3CCCC3C(=O)N2)C(C)OC(=O)C(CO)NC(=O)C(C(O)COC)N(C)C(=O)C(C(C)C)NC(=O)C(CC(C)CC)NC1=O (stereo not drawn) ?
OUTPUT: inactive

INPUT: Which outcome did this test record for the molecule COc1ccc2nc(C)cc(Nc3ccccc3O)c2c1 ?
OUTPUT: inactive

INPUT: Which outcome did this test record for the molecule Cc1cc(C)c2c(NC(=O)Nc3ccc(Cl)c(Cl)c3)n[nH]c2n1 ?
OUTPUT: inactive

INPUT: Which outcome did this test record for the molecule C=CCn1c(C)nc2cc(Nc3nc(Nc4ccc5nc(C)n(CC=C)c5c4)nc4ccccc34)ccc21 ?
OUTPUT: inactive

INPUT: Which outcome did this test record for the molecule COC(=O)c1ccc(NC(N)=NCCC(C)(C)c2ccc(C(F)(F)F)cc2)nc1 ?
OUTPUT: inactive

INPUT: Which outcome did this test record for the molecule N=c1n(Cc2ccccc2)c(N)cc(=O)n1Cc1ccccc1 ?
OUTPUT: inactive

INPUT: Which outcome did this test record for the molecule C#CCNC(=S)N/N=C(\C)c1ccccn1 ?
OUTPUT: inactive

INPUT: Which outcome did this test record for the molecule COc1ccc(-c2nn(-c3cccc(Cl)c3)cc2/C=C2\C(=N)N(c3ccccc3)N=C2N)cc1 ?
OUTPUT: inactive

INPUT: Which outcome did this test record for the molecule COc1ccc2[nH]c(O)c(/C=c3/ccc4c(c3)N=C(c3ccc(C(F)(F)F)cc3)N=4)c2c1 ?
OUTPUT: inactive

INPUT: Which outcome did this test record for the molecule O=c1[nH]cnc2nc[nH]c12 ?
OUTPUT: inactive

INPUT: Which outcome did this test record for the molecule CCCCOc1ncnc2nc[nH]c12 ?
OUTPUT: inactive

INPUT: Which outcome did this test record for the molecule COc1ccc(-n2nc(C(=O)NCC(=O)Nc3nc4cc(OC)ccc4s3)c3ccccc3c2=O)cc1 ?
OUTPUT: active

INPUT: Which outcome did this test record for the molecule O=C(O)/C=C(\c1nc2ccc([N+](=O)[O-])cc2[nH]1)c1cc(Cl)ccc1O ?
OUTPUT: inactive

INPUT: Which outcome did this test record for the molecule N#CC1=C(N)Oc2nc[nH]c(=O)c2C1c1cccs1 (stereo not drawn) ?
OUTPUT: inactive

INPUT: Which outcome did this test record for the molecule Cc1cc(C)c2c(n1)sc1c(Nc3ccc(Cl)cc3Cl)ncnc12 ?
OUTPUT: inactive

INPUT: Which outcome did this test record for the molecule CCCCCCCCCCCCCCC(C(=O)OCC)C(=O)OCC ?
OUTPUT: inactive

INPUT: Which outcome did this test record for the molecule CCc1oc2ccccc2c1C(=O)c1cc(I)c(O)c(I)c1 ?
OUTPUT: inactive

INPUT: Which outcome did this test record for the molecule C#CC[C@@H]1C[C@]2(C)[C@H]3CC=C4[C@H]5[C@@H](C)[C@H](C)CC[C@]5(C(=O)NCCCCCCCCN)CC[C@@]4(C)[C@]3(C)CC[C@H]2C(C)(C)[C@H]1OC(C)=O ?
OUTPUT: inactive

INPUT: Which outcome did this test record for the molecule Nc1cccc(S(=O)(=O)c2cccc(N)c2)c1 ?
OUTPUT: inactive

INPUT: Which outcome did this test record for the molecule COc1ccc(/C(=C\c2cc(OC)c(OC)c(OC)c2)C(=O)N2CCN(c3ccccc3)CC2)cc1O ?
OUTPUT: inactive

INPUT: Which outcome did this test record for the molecule O=C1C=CC(=O)N1CO ?
OUTPUT: inactive

INPUT: Which outcome did this test record for the molecule O=[N+]([O-])c1cccc([I+]c2ccccc2)c1 ?
OUTPUT: inactive

INPUT: Which outcome did this test record for the molecule CCc1ccc(Nc2cc(C)c3ccc(O)cc3n2)cc1 ?
OUTPUT: inactive

INPUT: Which outcome did this test record for the molecule O=C(Nc1ccc(Cl)c(C(F)(F)F)c1)c1ccc(Nc2ccc(Cl)nn2)cc1 ?
OUTPUT: inactive

INPUT: Which outcome did this test record for the molecule c1ccc2c(Cc3csc4ccccc34)csc2c1 ?
OUTPUT: inactive

INPUT: Which outcome did this test record for the molecule CCN(C(=O)Nc1cccc2ccccc12)c1ccccc1 ?
OUTPUT: inactive

INPUT: Which outcome did this test record for the molecule COc1cc(-c2nc(-c3nc4cc(C(=O)c5ccccc5)ccc4[nH]3)cc3c2[nH]c2ccccc23)cc(OC)c1OC ?
OUTPUT: inactive
